Every entry's value here was drawn from paper PMC12250893.

- experimental protocol: Metabolite identification, HLM incubation and rat model combined (UHPLC-Q-Exactive Orbitrap MS)
- Set-up: species or system human; rat
- study conditions: in vitro (HLM) and in vivo (rat) models together
Number of Phase II Metabolites below 7 gives not satisfied; Number of Phase II Metabolites at or above it gives satisfied.

Look over these answered cases.
compound	label class
CCCCCn1cc(C(=O)c2ccc3ccccc3c2)cc1-c1ccccc1F	satisfied
CCOC(=O)C(NC(=O)c1nn(CCCCCF)c2ccccc12)C(C)C (stereo not shown) [5F-EMB-PINACA]	not satisfied
CCCCCn1c(C(=O)c2cccc3ccccc23)nc2ccccc21	satisfied

Query string: Is the recorded value of Number of Phase II Metabolites equal to or greater than 7 for this compound? C=CCCn1nc(C(=O)NC(C(N)=O)C(C)(C)C)c2ccccc21 (stereo not shown)
Result string: not satisfied

Query string: # iterate: C=CCCCn1nc(C(=O)NC(C(N)=O)C(C)C)c2ccccc21 (stereo not shown)
Result string: not satisfied
